B1: SNAP91 (parent)
chain: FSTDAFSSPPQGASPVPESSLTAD

variants of: B1; experiment: protein stability index of a GFP-peptide fusion (GPS, HEK-293T) (PSI 1-6); higher = more stable; details: c terminus: a fixed tail appended;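 note: lentivirally expressed fusions sorted by FACS into six bins by GFP to DsRed ratio, PSI derived from sequencing read proportions per bin multiplied by bin number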
Task for the reader: assign each of the following variants its reported protein stability index.

Given FSTDAFSSPPQGASPVPPSSLTAD [E18P] , respond with its protein stability index.
2.78

Given FATDAFSSPPQGASPVPESSLTAD [S2A] , respond with its protein stability index.
2.09

Given FSTDAFSSPPQQASPVPESSLTAD [G12Q] , respond with its protein stability index.
3.35

Given FSTDAFSSPPQGASPVPESSDTAD [L21D] , respond with its protein stability index.
3.86

Given FSTDAFSSPPQGASPVPRSSLTAD [E18R] , respond with its protein stability index.
2.65

Given FSTDAFCSPPQGASPVPESSLTAD [S7C] , respond with its protein stability index.
2.18

Given FSTDAGSSPPQGASPVPESSLTAD [F6G] , respond with its protein stability index.
5.48

Given FSTDAFSSPPQNASPVPESSLTAD [G12N] , respond with its protein stability index.
3.08

Please report protein stability index for every entry that follows.
1. FSTDAFSSPPQGPSPVPESSLTAD [A13P]
2. FSTDAFSSPPQGAGPVPESSLTAD [S14G]
3. FSTDAFSSPPQGASPVPEDSLTAD [S19D]
4. HSTDAFSSPPQGASPVPESSLTAD [F1H]
5. FSTDWFSSPPQGASPVPESSLTAD [A5W]

[2.72, 3.3, 3.6, 5.37, 1.92]

// data source = the supplement of paper PMC10567573
